Quick reference for TGI among some compounds
- Tested on: HL-60(TB) leukemia
- test: NCI tumour cell line growth inhibition, 48 h

Examples with their reported TGI follow.
COC(=O)C1C(=O)N(C)C(=O)N2CCCC12 (configuration not stated) :: > 100 µM
COc1ccc(-c2nc(-c3nc4ccc(F)cc4[nH]3)c3ccccn23)cc1 :: > 100 µM
Cc1nc2ccc(NC(=O)CCNC(=O)CCCc3ccc(CC(C(=O)O)C(=O)O)cc3)cc2s1 :: > 100 µM

The measured TGI associated with "Cc1ccccc1-c1nc2c(C(=O)NCCN(C)C)cccc2[nH]1" reads > 74.6 µM

Query "Cc1ccccc1N=C(N)Nc1ccccc1C" yields TGI of > 100 µM

Value of measured TGI for the entry "O=C1c2c(O)cccc2-c2nn(CCNCCO)c3ccc(NCCNCCO)c1c23" : 0.123 µM

The compound listed as CC(C)CCCC(C)[C@H]1CCC2[C@@H]3CCC4Nc5c(cnn5-c5ccccc5)C[C@]4(C)C3CC[C@@]21C (some centres not stated) has a reported TGI of > 100 µM

Entry "O=c1oc(C(C(F)(F)F)C(F)(F)F)nc2ccccc12" , TGI reported as > 100 µM
